Provide the recorded shrunken log2 fold change for the entries that follow.
Tested on: Escherichia coli TOP10;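 also: peptides expressed intracellularly from a pBAD plasmid library in pooled LB shake-flask culture, induced with 0.3% L-arabinose, DNA abundance read by NGS, three biological replicates, DESeq2 with apeglm shrinkage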
assay notes: shrunken log2 fold change of peptide-encoding DNA abundance (4.5 h post-induction vs induction); higher = less antimicrobial activity (less host growth inhibition)
run conditions: time post-induction: 4.5 h; library: site-saturation at positions 5, 18, 19, 20
Give bare numbers.

Here's what some known entries look like.
{"query sequence": "RRIRDRPPRLPRPRPRPHLCPRP", "shrunken log2 fold change": -0.0584}
{"query sequence": "RRIRIRPPRLPRPRPRPQPCPRP", "shrunken log2 fold change": -0.0143}

Parameters: items (list). Returns: shrunken log2 fold change for each item.
1. RRIRKRPPRLPRPRPRPLGDPRP
2. RRIRDRPPRLPRPRPRPVHPPRP
3. RRIRHRPPRLPRPRPRPIALPRP
4. RRIRNRPPRLPRPRPRPSPTPRP

A.
0.227
0.184
-0.355
0.156

Parameters: items (list). Returns: shrunken log2 fold change for each item.
1. RRIRRRPPRLPRPRPRPKIQPRP
2. RRIRTRPPRLPRPRPRPHKDPRP
3. RRIRERPPRLPRPRPRPYNIPRP

A.
1. 0.0197
2. -0.973
3. -0.184

Parameters: items (list). Returns: shrunken log2 fold change for each item.
1. RRIRLRPPRLPRPRPRPLQMPRP
2. RRIRVRPPRLPRPRPRPRNIPRP
3. RRIRLRPPRLPRPRPRPYNKPRP
4. RRIRYRPPRLPRPRPRPNRNPRP
5. RRIRGRPPRLPRPRPRPKPDPRP
6. RRIRERPPRLPRPRPRPPCHPRP

A.
1: -0.135; 2: -0.0258; 3: 1.41; 4: -1; 5: 1.11; 6: -0.251
